Recorded values, source ChEMBL document CHEMBL1122098.

Species: Rattus norvegicus
Test summary: Tested for the alteration in rat CNS transmitter synthesis by […] of Dopa from caudate nucleus
Type: functional
Parameters: concentration or dose not given beside the values
So basically: is Control under 80%? Then YES. Not under? Then NO.

{"Molecule": "CCCN(CCC)C1Cc2c(OC)ccc(OC)c2C1", "Class": "YES"}
{"Molecule": "CNC1Cc2c(OC)ccc(OC)c2C1", "Class": "YES"}

Exam item: Please determine if COc1ccc(OC)c2c1CC(N)C2 is below 80% in terms of Control.
Marked response: NO

Exam item: Cool, now CN1CCc2cccc3c2[C@H]1Cc1ccc(O)c(O)c1-3
Marked response: YES

Exam item: // query: CNC1CCc2c(OC)ccc(OC)c2C1 (stereo unspecified)
Marked response: NO
